Tested on: Pseudomonas aeruginosa BA17
Experiment: MIC, agar diffusion, Pseudomonas aeruginosa BA17
Format: cell-based
Conditions: read-out: in vitro activities MIC
Reported Endpoint: MIC

[[record]]
molecule = "CC(C)CCCC(C(=O)NCCNCCCNCCN)[C@H]1CC[C@@]2(C)C1CCC1[C@@]3(C)CC[C@@H](O)[C@@H](C)C3CC[C@@]12C (some centres unmarked)"
result = "8 mg/L"

[[record]]
molecule = "CC(C)CCCC(C(=O)NCCCCNCCCN)[C@H]1CC[C@@]2(C)C1CCC1[C@@]3(C)CC[C@@H](O)[C@@H](C)C3CC[C@@]12C (some centres unmarked)"
result = "16 mg/L"

[[record]]
molecule = "CC(C)CCCC(C(=O)NCCCNCCCNCCCN)[C@@H]1CC[C@@]2(C)C1C[C@@H](O)C1[C@@]3(C)CC[C@@H](O)[C@@H](C)C3CC[C@@]12C (some centres unmarked)"
result = "4 mg/L"

[[record]]
molecule = "CC(C)CCCC(C(=O)NCCCNCCCCNCCCN)[C@@H]1CC[C@@]2(C)C1C[C@@H](O)C1[C@@]3(C)CC[C@@H](O)[C@@H](C)C3CC[C@@]12C (some centres unmarked)"
result = "16 mg/L"

[[record]]
molecule = "CC(=O)O[C@H]1C[C@@]2(C)C(CCC3[C@@]4(C)CC[C@@H](OS(=O)(=O)O)[C@@H](C)C4CC[C@@]32C)[C@@H]1[C@H](CCCC(C)C)C(=O)NCCCNCCCCNCCCN (some centres unmarked)"
result = "16 mg/L"


----------
Tested on: S. aureus CJ200
Experiment: MIC, agar diffusion, S. aureus CJ200
Format: cell-based
Details: Staphylococcus aureus, read-out: in vitro activities MIC
Reported Endpoint: MIC

[[record]]
compound = "CC(=O)O[C@H]1C[C@@]2(C)C(CCC3[C@@]4(C)CC[C@@H](OS(=O)(=O)O)[C@@H](C)C4CC[C@@]32C)[C@@H]1[C@H](CCCC(C)C)C(=O)NCCCNCCCCNCCCN (stereo partly drawn)"
result = "1 µg/mL"

[[record]]
compound = "CC(=O)O[C@H]1C[C@@]2(C)C(CCC3[C@@]4(C)CC[C@@H](OS(=O)(=O)O)[C@@H](C)C4CC[C@@]32C)[C@@H]1[C@H](CCCC(C)C)C(=O)NCCCNCCCNCCCN (stereo partly drawn)"
result = "1 µg/mL"

[[record]]
compound = "CC(=O)NC[C@H]1CN(c2ccc(N3CCOCC3)c(F)c2)C(=O)O1 [Linezolid, reference compound]"
result = "4 µg/mL"

[[record]]
compound = "CC(=O)O[C@H]1C[C@@]2(C)C(C[C@@H](O)C3[C@@]4(C)CC[C@@H](O)[C@@H](C)C4CC[C@@]32C)[C@@H]1[C@H](CCCC(C)C)C(=O)NCCCCNCCCN (stereo partly drawn)"
result = "4 µg/mL"

[[record]]
compound = "CC(=O)O[C@H]1C[C@@]2(C)C(C[C@@H](O)C3[C@@]4(C)CC[C@@H](OC(C)=O)[C@@H](C)C4CC[C@@]32C)[C@@H]1[C@H](CCCC(C)C)C(=O)NCCCNCCCCNCCCN (stereo partly drawn)"
result = "4 µg/mL"

[[record]]
compound = "C/C(=C\\C(=O)OCCCCCCCCC(=O)O)C[C@@H]1OC[C@H](C[C@@H]2O[C@H]2[C@@H](C)[C@H](C)O)[C@@H](O)[C@H]1O [Mupirocin, reference compound]"
result = "1 µg/mL"

